System: HFF
Assay: uninfected host cell viability relative to vehicle control; higher = less host cell toxicity
Conditions: 5 µM; 72 h; oxygen 21 %
Structures can show the parent of a compound that is named as a salt. Among all 1,000 compounds or so, about 15 (2%) showed an effect of 50% or more. This excerpt belongs to a sample that is enriched for strong results.
experimental_readout: uninfected host cell viability

1) N=C(CC(O)COc1ccccc1-c1ccccc1)N1CCCCC1 (stereo not drawn) :: 89.4%
2) Nc1nc(-c2ccc(Cl)c(Cl)c2)c(-c2ccncc2)s1 [CGH 2466 dihydrochloride] :: 87.4%
3) Nc1nc2c(nc(Br)n2[C@@H]2O[C@@H]3COP(=O)(O)O[C@H]3[C@H]2O)c(=O)[nH]1 [8-Bromo-cGMP, sodium salt] :: 89.8%
4) COc1cc(C[C@H]2C(=O)OC[C@@H]2Cc2ccc(OC)c(OC)c2)ccc1O :: 90%
5) OC(CN1CCC(Cc2ccc(F)cc2)CC1)c1ccc(Cl)cc1 (stereo not drawn) :: 88.9%
6) COCC(=O)O[C@]1(CCN(C)CCCc2nc3ccccc3[nH]2)CCc2cc(F)ccc2[C@@H]1C(C)C [Mibefradil dihydrochloride] :: 79.7%
7) O=C(NCCCCN1CCN(c2cccc(Cl)c2Cl)CC1)c1ccc2c(c1)Cc1ccccc1-2 :: 88.9%
8) CC[C@@H]1Cn2c(c3nc(-c4ccccc4)nc-3n(C)c2=O)N1 :: 89.2%
9) CCCCCCCCCCCCCCCC(=O)C(F)(F)F :: 91.7%
10) O=C(O)c1c(Sc2ccccc2)c2cc(Cl)ccc2n1Cc1ccc(Cl)cc1 :: 93.9%
11) Cn1cc(C2=C(c3cn(CCCSC(=N)N)c4ccccc34)C(=O)NC2=O)c2ccccc21 [Ro 31-8220 mesylate] :: 14.2%
12) NC(N)=Nc1ccc(Cl)cc1 [4-Chlorophenylguanidine hydrochloride] :: 87.3%
13) Nc1[nH]nc2nnc(-c3c(-c4ccccc4)nn4ccccc34)cc12 :: 94.7%
14) CCC(=O)OCN1C(=O)C=CC1=O :: 90.8%
15) NC(=O)CCCCn1ccc(NC(N)=NCC(F)(F)F)n1 :: 85.9%
16) CC(C)c1ccc(C(=O)c2cccs2)c(SCCCCCCCCN(C)C)n1 :: 74.5%
17) COc1ccc2[nH]c([S+]([O-])Cc3ncc(C)c(OC)c3C)nc2c1 (stereo not drawn) :: 85.1%
18) CCN(c1ccccc1)c1cc(=NC)n(C)c(C)n1 :: 92.2%
19) O=S(=O)(c1cccc2cnccc12)N1CCCNCC1 [Fasudil hydrochloride] :: 90.6%
20) CCOc1ccc(Nc2nc(-c3c(C)nc4ccccn34)cs2)cc1 :: 73.8%
21) O=C(NCCCN1CCCCCC1)C(c1ccccc1)C1CCCCC1 (stereo not drawn) :: 88.8%
22) C[C@@H](CN1CCC(n2c(=O)[nH]c3cc(Cl)ccc32)CC1)NC(=O)c1ccc2ccccc2c1 :: 94.4%
23) Cc1cc2nc3c(=O)[nH]c(=O)nc-3n(C)c2cc1C=O :: 94%
24) C=C1/C(=C\C=C2/CCC[C@]3(C)[C@@H]([C@H](C)/C=C/[C@@H](O)C4CC4)CC[C@@H]23)C[C@@H](O)C[C@@H]1O :: 83.9%
25) COc1ccc2cccc(N3CCN(CCNC(=O)c4ccc(F)cc4)CC3)c2c1 :: 82.7%
26) CN(C)CCCn1cc(C2=C(c3c[nH]c4ccccc34)C(=O)NC2=O)c2ccccc21 :: 62.3%
27) O/N=C/c1ccc(-c2ccc(O)c(F)c2)c(Cl)c1O :: 91.9%
28) CCN(CC)CCOc1ccc(Cc2ccccc2)cc1 [DPPE fumarate] :: 86.7%
